Ref: ChEMBL document CHEMBL1158420

test system: Aspergillus niger; experiment: Antifungal activity against Aspergillus niger by twofold dilution method; assay type: functional; settings: Aspergillus niger; read-out: MIC

compound	MIC, µg/mL
c1ccc(CON=C2C[C@@H](c3ccccc3)S[C@H](c3ccccc3)C2)cc1 (relative stereo)	200
CC1/C(=N\OCc2ccccc2)CC(c2ccccc2)OC1c1ccccc1 (configuration not stated)	200
COc1ccc(C2OC(c3ccc(OC)cc3)C(C)C(=NOCc3ccccc3)C2C)cc1 (configuration not stated)	50
CCC1/C(=N/OCc2ccccc2)CC(c2ccccc2)NC1c1ccccc1 (configuration not stated)	50
c1ccc(CO/N=C2\C[C@@H](c3ccccc3)S[C@@H](c3ccccc3)C2)cc1 (relative stereo)	100
Cc1ccc(C2C/C(=N\OCc3ccccc3)C(C)C(c3ccc(C)cc3)N2)cc1 (configuration not stated)	100
COc1ccc(C2CC(=NOCc3ccccc3)CC(c3ccc(OC)cc3)N2)cc1 (configuration not stated)	100
